Entry source: the supplement of paper PMC11208160

experiment: recombinant UMI read abundance after kanamycin selection (control-corrected) (log10(CPM+1)); higher = more efficient recombination; extreme values may be limits of the assay; sequences stand for … in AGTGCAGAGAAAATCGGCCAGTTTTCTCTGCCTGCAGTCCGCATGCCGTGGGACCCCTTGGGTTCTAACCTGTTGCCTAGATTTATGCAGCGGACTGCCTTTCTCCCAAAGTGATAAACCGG…AGGTTGGTTTCACT; site = the 11-nt donor;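 note: IS621 bridge recombinase in Escherichia coli cells against a fixed T5 target plasmid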
Measured recombinant UMI read abundance (log10) accompanies every entry in the list below.
Respond numerically, and do not add a unit to the figure.

Solved cases (8 shown):
- Seq string: "GGCACGCCATGGACCGGTTTTCCCGGTAATCCGTATTTGTA (site GACACGCCTTA)"
  Measured number: 0.00602
- Seq string: "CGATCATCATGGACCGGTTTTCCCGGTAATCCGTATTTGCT (site CGATGATCTGG)"
  Measured number: 0
- Seq string: "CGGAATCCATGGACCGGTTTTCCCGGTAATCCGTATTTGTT (site CGTAGTCCTAA)"
  Measured number: 0.00941
- Seq string: "GGTACGCCATGGACCGGTTTTCCCGGTAATCCGTATTTGTT (site GGTACGTCTAA)"
  Measured number: 0.426
- Seq string: "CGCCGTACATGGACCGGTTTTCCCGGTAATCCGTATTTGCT (site CGCCGTACTAA)"
  Measured number: 0.0116
- Seq string: "ATCCCTACATGGACCGGTTTTCCCGGTAATCCGTATTTGAG (site GTCCCTACTCT)"
  Measured number: 0.0127
- Seq string: "TTCTAGGCATGGACCGGTTTTCCCGGTAATCCGTATTTGGT (site TACTAGGCTAC)"
  Measured number: 0.00535
- Seq string: "ACTCTCCCATGGACCGGTTTTCCCGGTAATCCGTATTTGAT (site ACTCTCCCTAT)"
  Measured number: 0.628

# input I'd like to know its recombinant UMI read abundance (log10). The sequence in question is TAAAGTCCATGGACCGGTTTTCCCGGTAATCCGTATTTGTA (site TAACGTCCTTA)
# output 0.243

====

Measured recombinant UMI read abundance (log10) accompanies every entry in the list below.
assay: recombinant UMI read abundance after kanamycin selection (control-corrected) (log10(CPM+1)); higher = more efficient recombination; extreme values may be limits of the assay; sequences stand for … in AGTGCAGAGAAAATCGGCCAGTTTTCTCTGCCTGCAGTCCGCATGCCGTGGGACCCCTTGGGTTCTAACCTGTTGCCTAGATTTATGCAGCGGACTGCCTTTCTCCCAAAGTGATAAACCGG…AGGTTGGTTTCACT; site = the 11-nt donor
Respond numerically, and do not add a unit to the figure.

- Seq string: "GAAGTAGCATGGACCGGTTTTCCCGGTAATCCGTATTTGGG (site GAAGTAGCTCC)"
  recombinant UMI read abundance (log10): 0.618
- Seq string: "GTTTTTCCATGGACCGGTTTTCCCGGTAATCCGTATTTGGT (site GTTCTTCCTAC)"
  recombinant UMI read abundance (log10): 0.00946
- Seq string: "ACACCTCCATGGACCGGTTTTCCCGGTAATCCGTATTTGAC (site ACACATCCTGT)"
  recombinant UMI read abundance (log10): 0
- Seq string: "TGTATCGCATGGACCGGTTTTCCCGGTAATCCGTATTTGCT (site TGTATCGCTAG)"
  recombinant UMI read abundance (log10): 1.57

Would you kindly look at the next entry?
# input I'd like to know its recombinant UMI read abundance (log10). The sequence in question is ACGAATCCATGGACCGGTTTTCCCGGTAATCCGTATTTGTT (site ACGAATCCTAA)
# output 1.32
